# credit: the supplement of paper PMC10567573

B1: SOAT1 (parent)
chain: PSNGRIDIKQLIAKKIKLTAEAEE

Variants of: B1
Test Protocol: protein stability index of a GFP-peptide fusion (GPS, HEK-293T) (PSI 1-6); higher = more stable;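 note: lentivirally expressed fusions sorted by FACS into six bins by GFP to DsRed ratio, PSI derived from sequencing read proportions per bin multiplied by bin number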
Run Parameters: c terminus: a fixed tail appended
Kindly return Criterion met if reported protein stability index is no lower than 3; return Criterion not met if it is lower.

Mutation Label: N3Y
Answer Label: Criterion met
//
Mutation Label: A13K
Answer Label: Criterion met
//
Mutation Label: K9T
Answer Label: Criterion met
//
Mutation Label: N3G
Answer Label: Criterion met
//
Mutation Label: K17D
Answer Label: Criterion met
//
Mutation Label: K9L
Answer Label: Criterion not met
//
Mutation Label: R5N
Answer Label: Criterion met
//
Mutation Label: R5L
Answer Label: Criterion met
//
Mutation Label: I16P
Answer Label: Criterion met
//
Mutation Label: I6S
Answer Label: Criterion met
//
Mutation Label: A22I
Answer Label: Criterion not met
//
Mutation Label: K17T
Answer Label: Criterion met
//
Mutation Label: K17W
Answer Label: Criterion not met
//
Mutation Label: K14A
Answer Label: Criterion not met
//
Mutation Label: G4Q
Answer Label: Criterion met
//
Mutation Label: I8Y
Answer Label: Criterion met
//
Mutation Label: E21C
Answer Label: Criterion not met
//
Mutation Label: N3Q
Answer Label: Criterion met
//
Mutation Label: A13G
Answer Label: Criterion met
